Origin of measurements: patent US9714231B2

target: UniProt O14842; assay: FDSS-based intracellular calcium assay (Human GRP40 in vitro assay); format: cell-based; design: 3xFLAG; expressed in transfected cells; details: cells expressing GPR40, intracellular Ca2+ response, FDSS reader; read-out: hGPR40 EC50
Where a name gives a salt, the structure may show the parent alone.
MEASURED_ENDPOINT: EC50 (nM)

COc1ccc(F)c(N2CCC(Oc3ccc(N4C[C@H](F)C[C@@H]4CC(=O)O)cc3)C(C)C2)c1 (some centres unmarked) [Example 25, TFA]	77
COc1ccc(C(C)C)c(N2CCC(Oc3ccc(N4C[C@H](OC)C[C@@H]4CC(=O)O)cc3)CC2)c1 [Example 60, TFA]	190
COc1cc(N2CCC(Oc3ccc(N4C[C@H](OC)C[C@@H]4CC(=O)O)cc3)C(C)C2)c(Cl)cn1 (single isomer, unassigned) [Example 84, Isomer 2, TFA]	180
COc1cc(N2CCC(Oc3ccc(N4C[C@H](C(F)(F)F)C[C@@H]4CC(=O)O)c(F)c3)C(C)C2)c(Cl)cn1 (some centres unmarked) [Example 138, TFA]	190
CCc1c(OC)ccc(F)c1N1CCC(Oc2ccc(N3C[C@H](OC)C[C@@H]3CC(=O)O)cc2)CC1 [Example 31, TFA]	1100

P: COc1cc(N2CCC(Oc3ccc(N4C[C@H](F)[C@@H](C)[C@@H]4CC(=O)O)cn3)C(C)C2)c(Cl)cn1 (some centres unmarked)
Q: COc1cc(N2CCC(Oc3ccc(N4C[C@H](C(F)(F)F)C[C@@H]4CC(=O)O)cc3F)C(C)C2)c(Cl)cn1 (some centres unmarked)
## Task Between these two entries, P and Q , state which has the higher EC50. Answer with the label corresponding to your selection.
## Result Q
(Q: 580 nM, P: 90 nM)

* * *

target: human GPR40 (Homo sapiens, UniProt O14842); assay: FDSS-based intracellular calcium assay (Human GRP40 in vitro assay); assay type: cell-based; set-up: 3xFLAG; expressed in transfected cells; conditions: cells expressing GPR40, intracellular Ca2+ response, FDSS reader; read-out: hGPR40 EC50
Sequence (O14842 whole entry): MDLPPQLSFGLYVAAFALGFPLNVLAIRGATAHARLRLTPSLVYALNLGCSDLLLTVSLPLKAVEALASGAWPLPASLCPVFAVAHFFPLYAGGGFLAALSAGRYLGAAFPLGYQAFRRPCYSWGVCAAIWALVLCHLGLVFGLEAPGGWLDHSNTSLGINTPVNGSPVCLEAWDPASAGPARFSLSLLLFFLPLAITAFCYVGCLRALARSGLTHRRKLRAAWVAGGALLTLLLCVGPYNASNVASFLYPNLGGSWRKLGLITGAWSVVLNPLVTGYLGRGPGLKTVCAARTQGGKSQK
pEC50: −log10 of the molar value. Structures can show the parent of a compound that is named as a salt.
MEASURED_ENDPOINT: pEC50

As a guide, the following entries are already answered.
CCOc1ccc(F)c(N2CCC(Oc3ccc(N4C[C@H](OC)C[C@@H]4CC(=O)O)cc3)CC2)c1 [Example 107, TFA]	6.80
CCO[C@H]1CN(c2ccc(OC3CCN(c4cc(OC)ncc4Cl)CC3C)cc2)[C@@H](CC(=O)O)[C@@H]1C (stereo partly drawn) [Example 158, TFA]	6.80
COc1cc(N2CCC(Oc3ccc(N4C[C@H](OC)CC4CC(=O)O)c(F)c3F)C(C)C2)c(Cl)cn1 (single isomer, unassigned) [Example 141, Isomer 2]	5.25
CO[C@@H]1C[C@H](CC(=O)O)N(c2ccc(OC3CCN(c4cc(OC(F)(F)F)ccc4F)CC3)cc2)C1 [Example 63, TFA]	5.59

1: COc1cc(N2CCC(Oc3ncc(N4C[C@H](OC)[C@@H](C)[C@@H]4CC(=O)O)cc3F)C(C)C2)c(Cl)cn1 (stereo partly drawn) [Example 159]
2: COc1cc(N2CCC(Oc3ccc(N4C[C@H](OC)C[C@@H]4CC(=O)O)cn3)C(C)C2)c(Cl)cn1 (stereo partly drawn) [Example 132]
## Task // compare measured pEC50 between 1 and 2 ; output the lower one Answer with the label corresponding to your selection.
## Result 2
(2: 6.60, 1: 7.07)
